// pEC50 lookup, one value per entry
- MEASURED ON: T1, full-length beta-Catenin (Uniprot ID P35222) (Homo sapiens (Human), UniProt P35222 1-781)
- T1 construct: Used full-length in the FP and AlphaScreen assays; also called B-Catenin; bCat
- T1 sequence: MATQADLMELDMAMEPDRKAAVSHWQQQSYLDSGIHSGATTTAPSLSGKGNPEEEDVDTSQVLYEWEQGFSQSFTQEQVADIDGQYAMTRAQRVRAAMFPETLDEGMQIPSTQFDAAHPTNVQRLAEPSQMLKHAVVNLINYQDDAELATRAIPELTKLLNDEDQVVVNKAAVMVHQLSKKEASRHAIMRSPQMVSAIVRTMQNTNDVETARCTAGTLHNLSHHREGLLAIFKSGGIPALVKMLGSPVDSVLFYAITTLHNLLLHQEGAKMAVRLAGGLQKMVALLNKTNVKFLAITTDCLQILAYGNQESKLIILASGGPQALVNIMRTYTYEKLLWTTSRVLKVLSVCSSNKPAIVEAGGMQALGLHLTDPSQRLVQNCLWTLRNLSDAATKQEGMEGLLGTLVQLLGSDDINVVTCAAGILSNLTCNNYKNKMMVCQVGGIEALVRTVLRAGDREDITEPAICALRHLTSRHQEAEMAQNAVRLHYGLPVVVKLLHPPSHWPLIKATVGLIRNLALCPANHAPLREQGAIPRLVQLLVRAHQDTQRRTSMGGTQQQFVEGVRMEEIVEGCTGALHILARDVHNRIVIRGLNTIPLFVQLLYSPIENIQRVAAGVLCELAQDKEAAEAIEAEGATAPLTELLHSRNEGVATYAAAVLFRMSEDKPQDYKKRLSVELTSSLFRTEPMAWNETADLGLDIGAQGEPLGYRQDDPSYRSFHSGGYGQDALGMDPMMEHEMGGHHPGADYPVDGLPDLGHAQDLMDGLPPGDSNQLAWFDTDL
- ASSAY NOTES: AlphaScreen (nickel chelate) competition; full-length beta-catenin + biotin-TCF4(10-53) probe as competitor; peptide titrated
Starred links: 1 amine or outer side, 2 acyl side, 3 side chain; linkers in the order of their positions; H or OH if unused. Positions of bridges follow the written chain, without caps; N, C: chain ends. Non-standard residues stand in square brackets, D forms with d. Primed or numbered codes have the meaning given here. B5(4) = 2,2-bis(4-pentenyl)glycine = 2-amino-2-(pent-4-en-1-yl)hept-6-enoic acid (stitching residue), C=CCCCC(CCCC=C)(N[*:1])C(=O)[*:2]; B5(3) = 2,2-bis(4-pentenyl)glycine (stitching residue), C=CCCCC(CCCC=C)(N[*:1])C(=O)[*:2]; B5 = 2-amino-2-(pent-4-en-1-yl)hept-6-enoic acid, C=CCCCC(CCCC=C)(N[*:1])C(=O)[*:2]; Phe(3-Me) = Cc1cccc(C[C@H](N)C(=O)O)c1; αAllylPro = C=CC[C@@]1(C(=O)O)CCCN1; S8 = C=CCCCCCC[C@](C)(N)C(=O)O
Please express pEC50 as -log10 of the molar concentration.

Examples with answers:
Please look at this binder and report its pEC50: XDIXDEAAFQXFWQ (not fully specified; As printed: Ac-PL3-Asp-Ile-B5-Asp-Glu-Ala-Ala-Phe-Gln-S8-Phe-Trp-Gln-NH2. N-terminal Ac; C-terminal amide; PL3 (1), B5 (4), S8 (11) stapled by olefin metathesis (PL3-B5 and B5-S8), Stapled peptide composition; this is the earlier-eluting isomer composition) [I-180]
7.06

Please look at this binder and report its pEC50: Ac-[αAllylPro]DA[B5(4)]DEAA[Phe(3-Me)]V[S8]FWQ-NH2 (staple 1-4, 4-11, Stapled peptide composition) [I-208]
6.84

Continuing:
Please look at this binder and report its pEC50: Ac-[αAllylPro]YA[B5(3)]DEAAFV[S8]FWQ-NH2 (staple 1-4, 4-11, Stapled peptide composition) [I-202]
5.10

Please look at this binder and report its pEC50: XDIXDEAAFQXFWQ (not fully specified; As printed: Ac-PL3-Asp-Ile-B5-Asp-Glu-Ala-Ala-Phe-Gln-S8-Phe-Trp-Gln-NH2. N-terminal Ac; C-terminal amide; PL3 (1), B5 (4), S8 (11) stapled by olefin metathesis (PL3-B5 and B5-S8), Stapled peptide composition; this is the later-eluting isomer composition) [I-181]
7.29

Please look at this binder and report its pEC50: Ac-[αAllylPro]DA[B5]NEAAFV[S8]FWQ-NH2 (staple 1-4, 4-11, Stapled peptide composition) [I-198]
6.27
